subject-of-test: human NaV 1.8 (Homo sapiens)
experiment-summary: E-VIPR Assay Detecting and Measuring NaV Inhibition Properties
Assay type: cell-based
run-conditions: HEK cells expressing a truncated form of human NaV 1.8; compound number with "*": assay performed in the presence of human serum
In this section we review reported IC50 values for a set of compounds.

>>> endpoint_value("COc1c([C@@H]2[C@H](OC)[C@H](C)O[C@H]2C(=O)Nc2ccnc([C@@](C)(O)CO)c2)ccc(F)c1F (single isomer, unassigned) [Compound 11]")
"≥ 1 µM"
>>> endpoint_value("COc1c([C@@H]2[C@H](OC)[C@H](C)O[C@H]2C(=O)Nc2ccnc([C@H](O)CO)c2)ccc(F)c1F (single isomer, unassigned) [Compound 10]")
"≥ 1 µM"
>>> endpoint_value("COc1c([C@@H]2[C@H](OC)[C@H](C)O[C@H]2C(=O)Nc2ccnc([C@@H](O)CO)c2)ccc(F)c1F (single isomer, unassigned) [Compound 9]")
"≥ 1 µM"
>>> endpoint_value("COc1c([C@H]2[C@H](C(=O)Nc3ccnc([C@@H](O)CO)c3)OC(C)(C)[C@H]2OC)ccc(F)c1F (single isomer, unassigned) [Compound 20]")
"0.1 to 1 µM"
>>> endpoint_value("COc1c([C@@H]2[C@@H](C(=O)Nc3ccnc(C(N)=O)c3)OC(C)(C)[C@@H]2OC)ccc(F)c1F (stereo in doubt) [Compound 19]")
"≥ 1 µM"

What value of measured IC50 is listed for COc1c([C@@H]2[C@H](OC)[C@H](C)O[C@H]2C(=O)Nc2ccnc([C@](C)(O)CO)c2)ccc(F)c1F (single isomer, unassigned) [Compound 12] ? ≥ 1 µM

What IC50 value was documented for this compound, COc1c([C@@H]2[C@@H](C(=O)Nc3ccnc([C@@H](O)CO)c3)OC(C)(C)[C@@H]2OC)ccc(F)c1F (single isomer, unassigned) [Compound 21] ? ≥ 1 µM

Any idea what its IC50 is? The compound is COc1c([C@H]2[C@H](C(=O)Nc3ccnc([C@H](O)CO)c3)OC(C)(C)[C@H]2OC)ccc(F)c1F (single isomer, unassigned) [Compound 22] 0.1 to 1 µM

Give its IC50 value. Item: COc1c([C@@H]2[C@@H](C(=O)Nc3ccnc([C@H](O)CO)c3)OC(C)(C)[C@@H]2OC)ccc(F)c1F (single isomer, unassigned) [Compound 23] ≥ 1 µM

====

subject-of-test: human NaV 1.8 (Homo sapiens, UniProt Q9Y5Y9)
Sequence (Q9Y5Y9 126-1722 limits assumed): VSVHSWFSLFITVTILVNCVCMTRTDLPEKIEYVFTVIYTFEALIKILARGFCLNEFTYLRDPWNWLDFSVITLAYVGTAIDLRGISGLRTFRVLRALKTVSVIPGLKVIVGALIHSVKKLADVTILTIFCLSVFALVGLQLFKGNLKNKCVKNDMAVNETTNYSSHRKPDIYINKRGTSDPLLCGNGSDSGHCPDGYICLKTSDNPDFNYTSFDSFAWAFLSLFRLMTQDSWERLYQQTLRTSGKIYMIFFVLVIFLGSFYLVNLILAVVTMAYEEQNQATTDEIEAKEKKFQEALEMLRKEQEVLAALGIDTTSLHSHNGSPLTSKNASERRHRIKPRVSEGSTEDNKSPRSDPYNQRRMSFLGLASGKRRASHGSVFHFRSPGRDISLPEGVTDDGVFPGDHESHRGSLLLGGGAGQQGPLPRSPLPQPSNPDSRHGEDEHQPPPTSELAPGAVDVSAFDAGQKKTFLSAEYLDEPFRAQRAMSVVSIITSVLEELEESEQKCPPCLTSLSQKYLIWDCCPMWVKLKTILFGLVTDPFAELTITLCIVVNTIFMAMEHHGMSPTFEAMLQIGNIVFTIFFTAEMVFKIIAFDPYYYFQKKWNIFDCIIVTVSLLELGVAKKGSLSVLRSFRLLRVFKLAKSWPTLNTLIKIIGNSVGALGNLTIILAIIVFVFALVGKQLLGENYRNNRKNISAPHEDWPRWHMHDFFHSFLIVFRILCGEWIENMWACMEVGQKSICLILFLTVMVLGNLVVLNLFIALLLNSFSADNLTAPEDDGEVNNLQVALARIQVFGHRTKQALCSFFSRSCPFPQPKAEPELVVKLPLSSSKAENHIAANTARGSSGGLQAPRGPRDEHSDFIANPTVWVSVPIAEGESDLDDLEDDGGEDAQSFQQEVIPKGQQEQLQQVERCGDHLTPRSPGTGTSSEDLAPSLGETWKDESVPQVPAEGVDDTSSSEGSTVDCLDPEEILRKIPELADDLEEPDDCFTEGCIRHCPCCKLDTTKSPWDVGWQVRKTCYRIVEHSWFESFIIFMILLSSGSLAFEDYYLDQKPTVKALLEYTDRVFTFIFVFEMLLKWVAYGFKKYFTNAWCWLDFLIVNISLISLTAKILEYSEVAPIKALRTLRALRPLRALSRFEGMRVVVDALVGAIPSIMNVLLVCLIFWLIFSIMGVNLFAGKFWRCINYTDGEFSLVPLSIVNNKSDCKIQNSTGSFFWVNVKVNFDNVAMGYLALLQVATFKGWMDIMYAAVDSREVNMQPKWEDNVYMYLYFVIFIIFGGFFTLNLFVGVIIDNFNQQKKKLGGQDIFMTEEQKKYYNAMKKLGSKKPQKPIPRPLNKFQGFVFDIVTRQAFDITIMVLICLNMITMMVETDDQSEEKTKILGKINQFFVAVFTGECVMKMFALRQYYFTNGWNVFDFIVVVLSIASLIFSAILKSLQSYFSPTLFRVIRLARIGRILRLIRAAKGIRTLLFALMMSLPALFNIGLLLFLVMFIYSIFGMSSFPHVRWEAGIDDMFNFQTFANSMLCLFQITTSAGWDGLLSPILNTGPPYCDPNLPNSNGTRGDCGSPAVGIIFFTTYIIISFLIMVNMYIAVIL
experiment-summary: E-VIPR Assay Detecting and Measuring NaV Inhibition Properties
Assay type: cell-based
run-conditions: HEK cells expressing a truncated form of human NaV 1.8; compound number without "*" (not marked as run in the presence of human serum)
observation-type: IC50

What does the data say about its IC50? Entry: CCO[C@H]1[C@@H](c2ccc(F)c(F)c2OC)[C@H](C(=O)Nc2ccnc(C(N)=O)c2)O[C@@]1(C)C(F)(F)F < 10 nM

Quick one: IC50 of COc1c([C@@H]2[C@H](OC)[C@H](C(C)C)O[C@H]2C(=O)Nc2ccnc(C(N)=O)c2)ccc(F)c1F ? < 10 nM

Can you look up the measured IC50 of COc1c([C@@H]2[C@H](OC(C)C)[C@H](C)O[C@H]2C(=O)Nc2ccc(C(N)=O)nc2)ccc(F)c1F for me? ≥ 1000 nM

Look at this molecule and give its reported IC50. COc1c([C@@H]2[C@H](OC)[C@H](C)O[C@H]2C(=O)Nc2ccnc(C(N)=O)c2)ccc(F)c1F 100 to 1000 nM

What value of IC50 has been reported for the following molecule? COc1c([C@@H]2[C@H](OC(C)C)[C@H](C)O[C@H]2C(=O)Nc2ccc(CO)nc2)ccc(F)c1F ≥ 1000 nM

Could you share which IC50 value was measured for COc1c([C@H]2[C@H](C(=O)Nc3ccnc(C(N)=O)c3)O[C@@](C)(C(F)(F)F)[C@H]2OC)ccc(F)c1F ? < 10 nM

Form field: reported IC50 of COc1c([C@H]2[C@H](C(=O)Nc3ccnnc3)O[C@@](C)(C(F)(F)F)[C@H]2OC)ccc(F)c1C < 10 nM

Requested field: IC50. Item: COc1c([C@@H]2[C@H](OC(C)C)[C@H](C)O[C@H]2C(=O)Nc2ccnc(C(N)=O)c2)ccc(F)c1F 100 to 1000 nM

Quick check: IC50 of COc1c([C@@H]2[C@H](OC(C)C)[C@H](C)O[C@H]2C(=O)Nc2ccc([C@@H](O)CO)nc2)ccc(F)c1F ? ≥ 1000 nM
